- Format: physicochemical, Sphingobium japonicum UT26
- MEASUREMENT_CONDITIONS: ellipticity at 222 nm, 20 to 80° C., 1° C./min, 50 mM potassium phosphate buffer (pH 7.5)
# Tm per record follows
RECORDED_METRIC: Tm

L177H: LinB variant in the position 177 (protein, UniProt D4Z2G1 2-296, looked up, variant L177H) Haloalkane dehalogenase: SLGAKPFGEKKFIEIKGRRMAYIDEGTGDPILFQHGNPTSSYLWRNIMPHCAGLGRLIACDLIGMGDSDKLDPSGPERYAYAEHRDYLDALWEALDLGDRVVLVVHDWGSALGFDWARRHRERVQGIAYMEAIAMPIEWADFPEQDRDLFQAFRSQAGEELVLQDNVFVEQVLPGHILRPLSEAEMAAYREPFLAAGEARRPTLSWPRQIPIAGTPADVVAIARDYAGWLSESPIPKLFINAEPGALTTGRMRDFCRTWPNQTEITVAGAHFIQEDSPDEIGAAIAAFVRRLRPA = 48.85 ± 0.28 °C
L177M: LinB variant in the position 177 (protein, UniProt D4Z2G1 2-296, looked up, variant L177M) Haloalkane dehalogenase: SLGAKPFGEKKFIEIKGRRMAYIDEGTGDPILFQHGNPTSSYLWRNIMPHCAGLGRLIACDLIGMGDSDKLDPSGPERYAYAEHRDYLDALWEALDLGDRVVLVVHDWGSALGFDWARRHRERVQGIAYMEAIAMPIEWADFPEQDRDLFQAFRSQAGEELVLQDNVFVEQVLPGMILRPLSEAEMAAYREPFLAAGEARRPTLSWPRQIPIAGTPADVVAIARDYAGWLSESPIPKLFINAEPGALTTGRMRDFCRTWPNQTEITVAGAHFIQEDSPDEIGAAIAAFVRRLRPA = 47.78 ± 0.17 °C
L177Q: LinB variant in the position 177 (protein, UniProt D4Z2G1 2-296, looked up, variant L177Q) Haloalkane dehalogenase: SLGAKPFGEKKFIEIKGRRMAYIDEGTGDPILFQHGNPTSSYLWRNIMPHCAGLGRLIACDLIGMGDSDKLDPSGPERYAYAEHRDYLDALWEALDLGDRVVLVVHDWGSALGFDWARRHRERVQGIAYMEAIAMPIEWADFPEQDRDLFQAFRSQAGEELVLQDNVFVEQVLPGQILRPLSEAEMAAYREPFLAAGEARRPTLSWPRQIPIAGTPADVVAIARDYAGWLSESPIPKLFINAEPGALTTGRMRDFCRTWPNQTEITVAGAHFIQEDSPDEIGAAIAAFVRRLRPA = 48.08 ± 0.17 °C
